Cited source for all entries: patent US20130251728A1

Kd reference
measurement_target: T1, hGCGR-hFc (human)
T1 construct: also called REGN316
T1 sequence (chain, as listed by the source limits assumed): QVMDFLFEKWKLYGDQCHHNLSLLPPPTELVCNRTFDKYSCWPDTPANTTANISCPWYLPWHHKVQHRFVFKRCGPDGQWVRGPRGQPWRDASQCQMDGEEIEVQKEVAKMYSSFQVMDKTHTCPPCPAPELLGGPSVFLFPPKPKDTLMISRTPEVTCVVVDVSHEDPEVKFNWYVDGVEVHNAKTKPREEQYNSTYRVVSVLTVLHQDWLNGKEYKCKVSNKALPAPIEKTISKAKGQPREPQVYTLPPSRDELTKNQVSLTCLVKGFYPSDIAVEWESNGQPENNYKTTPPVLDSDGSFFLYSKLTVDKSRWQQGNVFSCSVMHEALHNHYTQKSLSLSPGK
experiment_summary: SPR Biacore T100, 25C, mAb captured, antigen flowed
Field format: number, assumed nM, no unit text.

H4H1328P (antibody, V domains shown, Fully human anti-GCGR antibody; the controls are called isotype-matched hIgG4) VH: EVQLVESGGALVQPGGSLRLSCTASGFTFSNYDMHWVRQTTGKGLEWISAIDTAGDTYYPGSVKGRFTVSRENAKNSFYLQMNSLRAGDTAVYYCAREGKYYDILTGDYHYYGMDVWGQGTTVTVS VL: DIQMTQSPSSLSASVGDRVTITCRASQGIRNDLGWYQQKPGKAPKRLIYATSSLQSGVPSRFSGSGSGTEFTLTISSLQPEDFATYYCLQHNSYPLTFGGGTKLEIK: 0.201
H4H1321P (antibody, V domains shown, Fully human anti-GCGR antibody; the controls are called isotype-matched hIgG4) VH: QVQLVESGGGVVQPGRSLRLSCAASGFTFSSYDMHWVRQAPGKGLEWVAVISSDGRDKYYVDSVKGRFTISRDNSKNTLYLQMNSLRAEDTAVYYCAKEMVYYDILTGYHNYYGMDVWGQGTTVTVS VL: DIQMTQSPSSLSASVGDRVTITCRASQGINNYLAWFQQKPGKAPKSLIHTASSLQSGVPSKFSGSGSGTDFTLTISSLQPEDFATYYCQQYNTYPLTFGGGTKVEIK: 0.238

Give Kd for H4H1765N (antibody, V domains shown, Anti-GCGR antibody from hybridoma; the controls are called isotype-matched hIgG4) VH: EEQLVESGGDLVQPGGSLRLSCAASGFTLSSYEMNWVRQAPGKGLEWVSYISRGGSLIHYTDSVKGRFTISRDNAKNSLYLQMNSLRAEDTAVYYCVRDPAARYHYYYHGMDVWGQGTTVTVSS VL: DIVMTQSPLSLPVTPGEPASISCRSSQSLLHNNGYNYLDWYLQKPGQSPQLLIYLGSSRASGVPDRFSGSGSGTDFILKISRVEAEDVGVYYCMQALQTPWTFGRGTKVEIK 0.0122
